Documented Whole Blood Stability % Remaining at 37° C. Mouse across a set of molecules
Test: Whole blood stability, mouse
Format: in vitro ADME
Details: 30 min
From the text: The results of the assay on stability in blood and IC50 values for pancreatic cancer cell line KP4 are given below in Table 24.

Molecule | Observed
CN(C)C(=O)c1ccc([C@H]2c3[nH]c4ccccc4c3C[C@H](C(=O)N(C)C)N2C(=O)CCl)cc1 [Compound 38] | 72.9%
CN(C)C(=O)[C@H]1Cc2c([nH]c3ccccc23)[C@H](c2ccc(C(=O)N3CCC(O)CC3)cc2)N1C(=O)CCl [Compound 45] | 91.2%
COC(=O)c1ccc([C@@H]2c3[nH]c4ccccc4c3C[C@H](C)N2C(=O)CCl)cc1 [Example 77a] | 0.0%

Next molecule, please.
Input line: Could you share which Whole Blood Stability % Remaining at 37° C. Mouse value was measured for COC(=O)[C@H]1Cc2c([nH]c3ccccc23)[C@@H](c2ccc(C(=O)N3CCC(O)CC3)cc2)N1C(=O)CCl [Compound 32a] ?
Output line: 0.0%

* * *

Assay: PK profile, IV plasma concentration and PK parameters
Type: in vivo
Details: Balb/C nude, mouse, 5 mg/kg IV, BID q12, post 2nd dose, 8 h, 30% Kolliphor EL in water
Quantity: concentration at 8 h (ng/mL)
Write the number in ng/mL without appending the unit.

Input line: // concentration at 8 h lookup, key: C#CC(=O)N1[C@@H](CCCC)Cc2c([nH]c3c(F)cc(F)cc23)[C@@H]1c1ccc(F)cc1 [Compound 156]
Output line: 24.4

* * *

System: MCF-10A
Test: Cell viability assay (CellTiter Glo), non-tumorigenic breast epithelial cell line MCF-10A
Assay type: cell-based
Settings: Homo sapiens, 96 hours
Quantity: IC50 (nM)
Value expressed in nM; do not type the unit.

Example molecules with recorded IC50:
Molecule | IC50 / nM
COC(=O)C1CCC([C@H]2c3[nH]c4ccccc4c3C[C@H](C(=O)N(C)C)N2C(=O)CCl)CC1 (stereo partly drawn) [Example 41] | 40
COCCN(C(=O)c1ccc([C@H]2c3[nH]c4ccccc4c3C[C@H](C(=O)N(C)C)N2C(=O)CCl)cc1)C(C)(C)C [Example 52] | 180
COC(=O)[C@H]1Cc2c([nH]c3ccccc23)[C@H](c2ccc(C(=O)NCC3CC3)cc2)N1C(=O)CCl [Example 81] | 2660
COC(=O)[C@H]1Cc2c([nH]c3ccccc23)[C@H](c2ccc(C(=O)NCCNC(=O)OC(C)(C)C)cc2)N1C(=O)CCl [Example 16] | 1950
[2H]C([2H])([2H])OC(=O)[C@H]1Cc2c([nH]c3ccccc23)[C@H](c2ccc(C(=O)OC)cc2)N1C(=O)CCl [CC] | 1680

For the next question, use this molecule.
Input line: Item under review: CC(=O)O[C@H]1C(=O)[C@@]2(C)[C@H]([C@H](OC(=O)c3ccccc3)[C@]3(O)C[C@H](OC(=O)[C@H](O)[C@@H](NC(=O)c4ccccc4)c4ccccc4)C(C)=C1C3(C)C)[C@]1(OC(C)=O)CO[C@@H]1C[C@@H]2O [paclitaxel, Paclitaxel, reference compound] . Reported IC50?
Output line: 1

* * *

Assay: Pharmacokinetic (PK) studies via intravenous infusion, Sprague-Dawley rat
Format: in vivo
Settings: male, plasma, 1 hour-IV infusion 8 mg/kg, 2 hr, one rat
Quantity: concentration at 2 h (ng/mL)
# number only, unit ng/mL dropped from output

Input line: What does the record list as concentration at 2 h for `COC(=O)[C@H]1Cc2c([nH]c3ccccc23)[C@H](c2ccc(S(=O)(=O)N[C@]34C[C@H]5C[C@H](C[C@H](C5)C3)C4)cc2)N1C(=O)CCl` ?
Output line: 6.52

* * *

Tested on: A549
Assay: Cell viability assay, A549 cells
Type: cell-based
Conditions: Homo sapiens, A549, Cell Line A549; read-out: IC50
Quantity: pIC50
As a rule, pIC50 stands for the negative log10 of the concentration, concentration in M.

Illustrative cases are given below, each with its answer.
Line notation | System | pIC50
C=CC(=O)N1[C@@H](CCCC)Cc2c([nH]c3ccccc23)[C@@H]1c1ccc(F)cc1 | A549 | 4.56
COC(=O)c1ccc([C@H]2c3[nH]c4ccccc4c3C[C@H](C(=O)OC)N2C(=O)/C=C/CN(C)C)cc1 | A549 | 5.49
Cc1cc(N2CCOCC2)ccc1[C@H]1c2[nH]c3ccccc3c2C[C@H](C)N1C(=O)CCl | A549 | 5.49
C[C@H]1Cc2c([nH]c3ccccc23)[C@H](c2ccc(N3CCOCC3)cc2F)N1C(=O)CCl | A549 | 5.70
COc1ccc2[nH]c3c(c2c1)C[C@H](C)N(C(=O)CCl)[C@H]3c1ccc(N2CCOCC2)cc1 | A549 | 5.11

Next:
Input line: Give the reported pIC50 for `C#CC(=O)N1[C@@H](c2ccc(F)cc2F)c2[nH]c3ccccc3c2C[C@@H]1C` (system: A549).
Output line: 4.96

* * *

Test system: MiaPaCa-2
Assay: Cell viability assay (CellTiter Glo), pancreatic carcinoma MiaPaCa-2
Assay type: cell-based
Conditions: Homo sapiens, MIA PaCa-2; pancreatic carcinoma, 96 hours, CellTiter Glo; read-out: IC50 MiaPaCa-2
pIC50: −log10 of the molar value.
Class Satisfied: pIC50 at least 7. Class Not satisfied: pIC50 below 7.

Take a look at these entries with their results.
Compound | Assigned category
COC(=O)[C@H]1Cc2c([nH]c3ccccc23)[C@H](c2ccc(S(=O)(=O)N[C@]34C[C@H]5C[C@H](C[C@H](C5)C3)C4)cc2)N1C(=O)CCl [Example 24] | Satisfied
COC(=O)[C@H]1Cc2c([nH]c3ccccc23)[C@H](c2ccc(C(=O)NCCN3CCOCC3)cc2)N1C(=O)CCl [Example 27] | Not satisfied

Input line: State whether the measured pIC50 reaches 7, counting equality as reaching it, for COC(=O)[C@H]1Cc2c([nH]c3ccccc23)[C@H](c2ccc(C(=O)NC(C(=O)O)C(C)(C)C)cc2)N1C(=O)CCl (stereo partly drawn) [Example 10]
Output line: Not satisfied

Input line: Now the compound COC(=O)[C@H]1Cc2c([nH]c3ccccc23)[C@H](c2ccc(C(=O)OC(C)(C)C)cc2)N1C(=O)/C=C/CCl [Example 25]
Output line: Not satisfied

Input line: Similarly, CNS(=O)(=O)c1ccc([C@H]2c3[nH]c4ccccc4c3C[C@H](C(=O)OC)N2C(=O)CCl)cc1 [Example 22] ?
Output line: Satisfied

Input line: Input COC(=O)[C@H]1Cc2c([nH]c3ccccc23)[C@H](c2ccc(S(=O)(=O)N3CC(O)C3)cc2)N1C(=O)CCl [Example 37]
Output line: Not satisfied

* * *

Each entry below carries its recorded Whole Blood Stability % Remaining at 37° C. Mouse.
Experiment: Whole blood stability, mouse
Format: in vitro ADME
Details: 60 min
From the text: The results of the assay on stability in blood and IC50 values for pancreatic cancer cell line KP4 are given below in Table 24.
Numbers only here, please. The scale is %.

Molecule | Units label | Observed
COC(=O)[C@H]1Cc2c([nH]c3ccccc23)[C@H](c2ccc(C(=O)OC(C)(C)C)cc2)N1C(=O)C(C)Cl (stereo partly drawn) [Compound 33] | % | 69.3
COC(=O)[C@H]1Cc2c([nH]c3ccccc23)[C@H](c2ccc(C(=O)OC[C@]34C[C@H]5C[C@H](C[C@H](C5)C3)C4)cc2)N1C(=O)CCl [Compound 6] | % | 4.7
COC(=O)[C@H]1Cc2c([nH]c3ccccc23)[C@H](c2ccc(NC(C)=O)cc2)N1C(=O)CCl [Compound 80] | % | 58.6

Input line: Any idea what its Whole Blood Stability % Remaining at 37° C. Mouse is? The molecule is COC(=O)[C@H]1Cc2c([nH]c3ccccc23)[C@H](c2ccc(S(=O)(=O)N3CC(O)C3)cc2)N1C(=O)CCl [Compound 37]
Output line: 9.8

Input line: Request: COC(=O)c1ccc([C@@H]2c3sc4ccccc4c3C[C@H](C(=O)OC)N2C(=O)CCl)cc1 [Example 55d]
Output line: 0.0

Input line: Same for CN(C)C(=O)[C@H]1Cc2c([nH]c3ccc(Br)cc23)[C@H](c2ccc(C(=O)OC(C)(C)C)cc2)N1C(=O)CCl [Compound 61]
Output line: 6.8

* * *

Assay: Pharmacokinetic (PK) studies in Balb/C nude mice via intraperitoneal injection
Conditions: male, Balb/c nude, mouse, plasma, ip, 15 mg/kg
Quantity: Tmax (h)
Use h as the unit, but write only the number.

Input line: # get_value(readout='Tmax', item= COC(=O)c1ccc([C@H]2c3[nH]c4ccccc4c3C[C@H](C(=O)OC)N2C(=O)CCl)cc1 [Example K601, RSL3, reference compound] )
Output line: 1.67

* * *

Experiment: Pharmacokinetic (PK) studies via intravenous infusion, Sprague-Dawley rat
Assay type: in vivo
Settings: male, plasma, 1 hour-IV infusion 8 mg/kg, 1.5 hr, one rat
Quantity: concentration at 1.5 h (µg/mL)
A number alone suffices; assume µg/mL.

Input line: # input molecule: `COC(=O)[C@H]1Cc2c([nH]c3ccccc23)[C@H](c2ccc(S(=O)(=O)N[C@]34C[C@H]5C[C@H](C[C@H](C5)C3)C4)cc2)N1C(=O)CCl` ; wanted: its concentration at 1.5 h
Output line: 0.0173
